assay_notes: clinical study (iii): multiple-dose oral pharmacokinetics, Formulation 1 capsules
Type: in vivo, human
condition_context: both sexes, human, plasma, oral, 50 mg, multiple-dose 50 mg, Day 1; read-out: Tmax Median
outcome_measure: Tmax (min)

>  <structure>
CC[C@@H](Nc1c(Nc2cccc(C(=O)N(C)C)c2O)c(=O)c1=O)c1ccc(C)o1

>  <outcome_measure>
Tmax

>  <unit_annotation>
min

>  <observed_measurement>
45

$$$$

====

assay_notes: clinical study (i): single-dose oral pharmacokinetics, Formulation 1 capsules
Assay type: in vivo, human
condition_context: both sexes, human, plasma; single oral dose 200 mg, healthy subjects; read-out: Tmax Median
outcome_measure: Tmax (min)

>  <structure>
CC[C@@H](Nc1c(Nc2cccc(C(=O)N(C)C)c2O)c(=O)c1=O)c1ccc(C)o1

>  <unit_annotation>
min

>  <observed_measurement>
37.5

$$$$

The reported measurements were obtained from patent US8183287B2.
